Assay: yeast display, Sf9 membrane polyspecificity reagent, FACS + sequencing; frameworks hold sequencing errors
attributeMeasured: polyreactivity (PSR sort gate)

- QVQLVESGGGLVQAGGSLRLSCADSGRTFTGYVMGWYRQAPGKEREFVAVIRYRGGGTYYAYSVKGRFTISRDNAKNTVYLQMNSLKPEDTAVYYCSARWRYSYVGDFDYWGQGTQVTVSS: high polyreactivity
- QVQLVESGGGLVQAGGSLRLSCAASGFIFNYYTMGWYRQAPGKERELVAVITGGGGSTYYADSVKGRFTISRDNAKNTVYLQMNSLKPEDTAVYYCAAEWFSWGQGTQITVSS: low polyreactivity
- QVQLVESGGGLVQAGGSLRISCAASGSTFWNAMGWYRQAPGKERELVAAIRLSGGSTYYADSVKGRFTISRDNAKNTVYLQMNSLKPEDTAVYYCNSDVTFGYWEYDYWGQGTQVTVSS: low polyreactivity
- QVQLVESGGGLVQAGGSLRLSCAASGFIFTTYAMGWYRQEPGTERELVAAISGRGGTTYYADSVKGRFTISRDNAKNTVYLQMNSMKPEDTAVYYCAADGYPGDDYWGQGTQVTVSS: high polyreactivity

Okay, next one:
I would be grateful if you could share the reported polyreactivity (PSR sort gate) for QVQLVESGGGLVQAGGSLRLSCAASGLTFYFYAMGWYRQAPGKERELVAAINSGGSTNYADSVKGRFTISRDNAKNTVYLQMNSLKPEDTAVYYCNADYYFTSYEYEYWGQGTQVTVSS . low polyreactivity

====

Assay: yeast display, Sf9 membrane polyspecificity reagent, FACS + sequencing; frameworks hold sequencing errors
attributeMeasured: polyreactivity (PSR sort gate)

Worked cases, answers included:
- QVQHVESGGGLVQAGGSLRLICAASGSTFGDNAKGRYREAPGKERELVAVITSDTSTYYADSVKGRFTISRDNAKNTVYLQMNSLKPEDTAVYYCAADWGGLWFWYEYWGQGTQVTVSS: low polyreactivity
- QVQLVESGAGIVQAGGSLRLSCAASGSIFYYNAMGVYRQAPGKERELVAAITSADSTNYADSVKGRFTISRDNAKNTVYLQMNSLKPEDTAVYFCAADFLAALTYYRTYDYWGQGTQVTVSS: low polyreactivity
- QVQLVESGGGLVQAGGSLRLSCAASGRIFAGYTMGWYRQAPGKERELVAAISGSGGRTYYADSVKGRFTISRDIAKNTVYLQMNSLKPEDTAVYYCAAYRSRTYGYWGQGTQVTVSS: high polyreactivity
- QVQLVESGGGLVQAGGSLRLSCAASGITFSGYDMGWYRQAPGKERELVADITISTGSTYYADSVKGRFTISRDNAKNTVYLQMNSLKPEDTAVYYCAADWQQDRTVVLPSWGHAYDSWGQGTQVTVSS: low polyreactivity
- QVQLVESGGGLVQAGGSLRLSCAASGRTFHANAMGWYRQAPGKERELVAAISYRTGSTYYADSVKGRFTISRDNAKNTVYLQMNILKPDDTAVYYCDVDTRYGYGYWGQGTQVTVSS: high polyreactivity
- QVQLVESGGGLVQAGGSLRLSCAASGLTFYNYAMGWYIQAPGKERELVATITSSGARTYYADSVKGRFTISRDNAKNTVYLQMNSLTPEDTAVYYCAKQAYDQSPYNYWGQGTQVTVSS: high polyreactivity

Give measured polyreactivity (PSR sort gate) for every item shown.
1. QVQLVESGGGLVQAGGSLRLSCAASGSTFNWNAMGWYRQAPGKERELVAAISRSGGRTSYADSVKGRFTISRDNAKNTVYLQMNSLKPEDTAVYYCAAEKVGTRPSRDYDYWGQGTQVTVSS
2. QVQLVESGGGLVQAGGSLRLSCAASGSIFATYGMGWYRQAPGKERELVAAITSSGGSTYYADSVKGRFTISRDNAKNTVYLQMNSLKPEDTAVYYCAADSYIIWYGTVVSYGEDSWGQGTQVTVSS
3. QVQLVESGGGLVQAGGSLRLSCAASGSTFFRNAMGWYRQAPGKERELVAGITSGVTTYYADSVKGRFTISRDNAKNTVYLQMNSLKPEDTAVYYCAVYWRGRGAFTYGSWGQGTQVTVSS
4. QVQLVESGGGLVQAGGSLRLSCAASGRIYKYYAMGWYRQAPGKETELVAAISISGTNTYYADSVKGRFTISRDNAKNTVYLQMNSLKPEDTAVFYCAARQYTRGYEREYWGQGTQVTVSS
5. QVQLVESGGGLVQAGGSLRLSCAASRFTFLTNAMGWYRKAPGTERELVAAISSGGNTNYADSVKGRFTISRDNAKNTVYLQMNSLKPEDTAVYYCAADNDYLSSQVSYDYWGQGTQVTVSS

1: high polyreactivity; 2: low polyreactivity; 3: high polyreactivity; 4: high polyreactivity; 5: low polyreactivity
